Value source: PubChem BioAssay (NCI)

tested on: UO-31 renal; assay: NCI-60 one-dose screen, 48 h (100 = growth as untreated, 0 = no growth, -100 = all killed); conditions: 10 µM unless noted
About 83,000 compounds went through this panel and 20% of them were active in at least one assay; those are over-represented in the sample as a whole.
QUANTITY_MEASURED: growth (%)
Numbers only, in %.

Some molecules with recorded growth:
>>> print(df.to_string())
                                smiles_code  quantity_measured  reported_measurement
0  COc1ccc(/C=C(\C#N)c2cc3ccccc3n2C(C)=O)cc1             growth                  88.1
1  Nc1c(C(=O)Nc2cccc3ccccc23)sc2nc3c(cc12)CCCC3             growth                    42

# context switch: different molecule, same growth
Reported growth for C[N+](C)(CCCCCC[N+](C)(C)C1c2ccccc2-c2ccccc21)C1c2ccccc2-c2ccccc21 was 89
